B1: ZNF449 (parent)
chain: FQEYDTDCEVFRQRFRQFQYREAA

# Variants of: B1
# assay comment: protein stability index of a GFP-peptide fusion (GPS, HEK-293T) (PSI 1-6); higher = more stable;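 further: lentivirally expressed fusions sorted by FACS into six bins by GFP to DsRed ratio, PSI derived from sequencing read proportions per bin multiplied by bin number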
# condition summary: c terminus: a fixed tail appended
observation type: protein stability index
Reply with just the number.

# mutation key, readout value
measured = [
    ("R21I", 2.71),
    ("F11S", 2.94),
    ("Q2H", 1.78),
    ("F11N", 3.57),
    ("Q2F", 2.48),
]

stdin: Consider the variant V10Q . State its measured protein stability index.
stdout: 3.27

stdin: Consider the variant E9K . State its measured protein stability index.
stdout: 2.21

stdin: Consider the variant F11V . State its measured protein stability index.
stdout: 3.68

stdin: Consider the variant F15C . State its measured protein stability index.
stdout: 2.83

stdin: Consider the variant Y4H . State its measured protein stability index.
stdout: 2.33

stdin: Consider the variant Q19D . State its measured protein stability index.
stdout: 2.18

stdin: Consider the variant Q2C . State its measured protein stability index.
stdout: 2.26

stdin: Consider the variant R12P . State its measured protein stability index.
stdout: 2.35

stdin: Consider the variant Q17K . State its measured protein stability index.
stdout: 2.42

stdin: Consider the variant E3F . State its measured protein stability index.
stdout: 2.35

stdin: Consider the variant F11D . State its measured protein stability index.
stdout: 3.95

stdin: Consider the variant R14F . State its measured protein stability index.
stdout: 2.01

stdin: Consider the variant F11K . State its measured protein stability index.
stdout: 3.14

stdin: Consider the variant R12G . State its measured protein stability index.
stdout: 2.57

stdin: Consider the variant E3W . State its measured protein stability index.
stdout: 2.6

stdin: Consider the variant E22V . State its measured protein stability index.
stdout: 2.12

stdin: Consider the variant F11Q . State its measured protein stability index.
stdout: 3.24
